Target: full-length beta-Catenin (Uniprot ID P35222) (Homo sapiens, UniProt P35222)
Construct: 10 nM full-length beta-Catenin (Uniprot ID P35222)
Sequence (P35222 whole entry): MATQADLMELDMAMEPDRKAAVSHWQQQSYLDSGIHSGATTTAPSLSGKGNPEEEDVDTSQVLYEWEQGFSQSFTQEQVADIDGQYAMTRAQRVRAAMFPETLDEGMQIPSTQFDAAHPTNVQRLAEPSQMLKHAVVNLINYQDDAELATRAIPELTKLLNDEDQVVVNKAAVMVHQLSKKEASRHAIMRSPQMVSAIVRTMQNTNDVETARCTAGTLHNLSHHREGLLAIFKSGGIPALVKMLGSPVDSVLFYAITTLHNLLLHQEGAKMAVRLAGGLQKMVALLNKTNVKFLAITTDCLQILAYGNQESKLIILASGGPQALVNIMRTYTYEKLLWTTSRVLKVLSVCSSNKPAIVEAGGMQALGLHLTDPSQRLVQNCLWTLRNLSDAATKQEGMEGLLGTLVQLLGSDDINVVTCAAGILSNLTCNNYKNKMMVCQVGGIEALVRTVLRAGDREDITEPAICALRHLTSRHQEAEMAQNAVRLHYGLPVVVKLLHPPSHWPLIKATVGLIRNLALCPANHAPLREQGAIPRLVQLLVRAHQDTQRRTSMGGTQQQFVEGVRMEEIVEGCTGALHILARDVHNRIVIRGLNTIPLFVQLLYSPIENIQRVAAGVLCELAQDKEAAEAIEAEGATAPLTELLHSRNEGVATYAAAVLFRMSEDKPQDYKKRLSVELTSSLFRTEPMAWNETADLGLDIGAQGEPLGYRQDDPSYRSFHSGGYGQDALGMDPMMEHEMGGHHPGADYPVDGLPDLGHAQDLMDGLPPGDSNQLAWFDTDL
Experiment: Fluorescence polarization IC50 (beta-catenin / 5FAM-TCF4 10-53 competition)
Format: binding
Conditions: fluorescence polarization; read-out: beta-Catenin FP IC50
Outcome measure: IC50 (µM)
Field format: number, assumed µM, no unit text.

Provide IC50, tested on full-length beta-Catenin (Uniprot ID P35222) (Homo sapiens, UniProt P35222), for CC[C@@H]1NC(=O)[C@H](Cc2ccccc2)NC(=O)[C@H](C)NC(=O)C(C)(C)NC(=O)[C@H](Cc2cccc(C(=O)O)c2)NC(=O)[C@H](CC(=O)O)NC(=O)C2(CCCC=CCCCOC(=O)N3CC[C@@](C(=O)N[C@@H](Cc4ccccc4C(F)(F)F)C(=O)N[C@@H](Cc4csc5ccccc45)C(=O)N[C@@H](CCC(=O)N(C)C)C(=O)N[C@@H](C)C(N)=O)(C3)NC1=O)CCCC=CC[C@]1(CCCN1C(C)=O)C(=O)N[C@@H](CC(=O)O)C(=O)N[C@@H](CC(C)(C)C)C(=O)N2 (stereo partly shown) .
0.038
